Each item that follows carries a reported TGI.
- Test system: IGROV1 ovarian
- protocol.details: NCI tumour cell line growth inhibition, 48 h
Supply the numeric figure in µM, leaving out any unit text.

# structure.as.smiles, TGI, µM
rows = [
    ("CCOC(=O)c1ccc(NC(=O)Nc2nncs2)cc1", 14.8),
]

# ---- query compound ----
I have this compound here, "Cc1nc(-n2nc(-c3ccccc3)cc2-c2ccccc2)sc1C(=O)/C=C/c1ccc(/C=C/C(=O)c2sc(-n3nc(-c4ccccc4)cc3-c3ccccc3)nc2C)cc1" , and I need its recorded TGI.
28.6

====

- Test system: LOX IMVI melanoma
- protocol.details: NCI tumour cell line growth inhibition, 48 h
endpoint.name: TGI

# molecule, result
measured = [
    ("COc1ccc(C2=C(Cl)c3cc(OC)c(OC)cc3C2OC)cc1OC (stereo unspecified)", "> 100 µM"),
    ("CC(C)c1[nH]nc(C(N)=O)c1N=NN(C)C", "> 100 µM"),
    ("C=CCN(c1cc(OCc2ccccc2)c2[nH]cc(C)c2c1)S(C)(=O)=O", "> 100 µM"),
    ("O=c1[nH]c(Cc2ccccc2)nc2c1sc1nc3ccccc3n12", "> 100 µM"),
    ("COc1ccc(C2NC(=S)Nc3c2c(=O)oc2c3ccc3ccccc32)cc1 (stereo unspecified)", "> 100 µM"),
]

# ---- query molecule ----
I have this molecule here, "CC(C)OP(=O)(OC(C)C)/C(Cl)=N/Nc1ccc([N+](=O)[O-])cc1" , and I need its recorded TGI.
> 100 µM

====

- System: NCI/ADR-RES ovarian
- protocol.details: NCI tumour cell line growth inhibition, 48 h
Each item that follows carries a reported GI50.

# structure.as.smiles, test.system, endpoint.name, result
records = [
    ("NS(=O)(=O)c1ccc(Nc2cc(-c3cccc(O)c3)[nH]n2)cc1", "NCI/ADR-RES ovarian", "GI50", "> 25 µM"),
    ("COc1ccc(C2=N[C@@H](Cc3ccccc3)C(=O)Nc3ccsc32)cc1", "NCI/ADR-RES ovarian", "GI50", "3.84 µM"),
    ("Fc1cccc(COc2ccc(Nc3ncnc4sc(-c5cccs5)cc34)cc2Cl)c1", "NCI/ADR-RES ovarian", "GI50", "4.74 µM"),
]

# ---- query compound ----
I have this compound here, "CCN(CC)c1ccc(/C=N/NC(=O)CSc2nc3ccccc3c(=O)n2CCc2ccc(S(N)(=O)=O)cc2)c(O)c1" , and I need its recorded GI50.
> 100 µM

====

- Tested on: K-562 leukemia
- protocol.details: NCI tumour cell line growth inhibition, 48 h
Each item that follows carries a reported TGI.

# compound, TGI
rows = [
    ("Cc1cc(NCCCCCCCCNc2cc(C)nc3cc(N)ccc23)c2ccc(N)cc2n1", "16.3 µM"),
    ("Cc1cc(S(=O)(=O)Nc2nc3ccccc3o2)c(SCc2ccccc2)cc1Cl", "> 100 µM"),
    ("CC(C)(CN1CCCCC1)C(=O)/C=C/c1ccc(/C=C/C(=O)C(C)(C)CN2CCCCC2)cc1", "0.375 µM"),
    ("CN1c2ccccc2N(C(=O)c2ccc([N+](=O)[O-])cc2)C(CC(=O)O)c2cccn21 (stereo not drawn)", "> 100 µM"),
    ("COc1ccc(N=N/C(=N/NC(=O)c2ccc(C)cc2)c2ccc(N(CCC#N)CCC#N)cc2OC)cc1", "> 100 µM"),
]

I have this compound here, "Fc1cccc(COc2ccc(Nc3ncnc4sc(-c5cccs5)cc34)cc2Cl)c1" , and I need its recorded TGI.
> 25 µM

I have this compound here, CC(NC(=O)/C(=C/c1ccccc1)NC(=O)c1ccccc1)C(=O)O (stereo not drawn) , and I need its recorded TGI.
> 100 µM

I have this compound here, "CCCCCN(CCCCC)C(=O)[C@@H](CCC(=O)O)NC(=O)c1cc2ccccc2[nH]1" , and I need its recorded TGI.
> 100 µM

I have this compound here, "Nc1ccc2c(O)cc(=O)[nH]c2n1" , and I need its recorded TGI.
> 100 µM

I have this compound here, "CC(=O)Nc1c(S(=O)(=O)c2ccccc2)c(C)c(C)n1CCN(C)C" , and I need its recorded TGI.
> 100 µM

I have this compound here, "NNC(=S)N/N=C(\C(=O)Nc1cccc(O)c1)C1C(=O)NC(=S)NC1=O" , and I need its recorded TGI.
> 100 µM

I have this compound here, COC(=O)C1CCc2c1c(=O)n1c([nH]c3ccccc31)c2C#N (stereo not drawn) , and I need its recorded TGI.
> 100 µM

I have this compound here, "CC(=O)C(=[N+]=[N-])C(=O)N1CCOC1=O" , and I need its recorded TGI.
> 10 µM

I have this compound here, "CC(C)c1[nH]nc(C(N)=O)c1N=NN(C)C" , and I need its recorded TGI.
> 100 µM

I have this compound here, "CC(C)(Br)C(=O)N1CCN(C(c2ccccc2)c2ccccc2)CC1" , and I need its recorded TGI.
> 100 µM

I have this compound here, "CS(=O)(=O)Nc1cncc(-c2ccc3ncnc(Nc4ccc(F)c(Cl)c4)c3c2)c1" , and I need its recorded TGI.
20.1 µM

====

- Tested on: T-47D breast
- protocol.details: NCI tumour cell line growth inhibition, 48 h
endpoint.name: TGI

# molecule, TGI
records = [
    ("O=c1[nH]c2nnc(COc3ccc(Cl)cc3Cl)n2nc1Cc1ccccc1", "> 100 µM"),
    ("O=S(=O)(NCCCNc1nccc(-c2c(-c3ccc(O)cc3)nc3sccn23)n1)c1ccc(F)cc1", "3.55 µM"),
    ("O=c1ccn(CC2(CO)CCC2)c(=O)[nH]1", "> 100 µM"),
]

I have this molecule here, CCSCC1CC(O)(c2ccccc2)CC(c2ccc(F)cc2)O1 (centres undefined) , and I need its recorded TGI.
8.24 µM

I have this molecule here, C[N+]1(CCC(=O)c2ccco2)CC2CCC(CC2)C1 (centres undefined) , and I need its recorded TGI.
> 100 µM

I have this molecule here, "O=C(CSc1nc2ccc([N+](=O)[O-])cc2s1)c1ccc2ccccc2c1" , and I need its recorded TGI.
> 100 µM

I have this molecule here, CCCCCCCCCCCCOC1C(CNC(=O)C2OC3OC(C)(C)OC3C2NC(=O)Nc2ccc(CC(=O)OC)cc2)OC2OC(C)(C)OC21 (centres undefined) , and I need its recorded TGI.
> 100 µM

I have this molecule here, "CN(C)CCCc1cccc2[nH]c3c(c12)CN(C)CC3" , and I need its recorded TGI.
> 100 µM

I have this molecule here, "COc1ccc(C2=N[C@@H](Cc3ccccc3)C(=O)Nc3ccsc32)cc1" , and I need its recorded TGI.
48.4 µM

====

Each item that follows carries a reported TGI.
- Test system: SK-MEL-5 melanoma
- protocol.details: NCI tumour cell line growth inhibition, 48 h

Worked cases, answers included:
# structure.as.smiles, test.system, result
rows = [
    ("N#Cc1nc(CCN2C(=O)c3ccccc3C2=O)oc1N", "SK-MEL-5 melanoma", "> 100 µM"),
    ("CCOC(=O)c1c(N)n(-c2ccccc2)c(=O)n(-c2ccccc2)c1=O", "SK-MEL-5 melanoma", "> 100 µM"),
    ("CC(=O)Nc1c(S(=O)(=O)c2ccccc2)c(C)c(C)n1CCN(C)C", "SK-MEL-5 melanoma", "> 100 µM"),
    ("COc1ccc(N=N/C(=N/NC(=O)c2ccc(C)cc2)c2ccc(N(CCC#N)CCC#N)cc2OC)cc1", "SK-MEL-5 melanoma", "> 100 µM"),
    ("NS(=O)(=O)c1ccc(Nc2cc(-c3cccc(O)c3)[nH]n2)cc1", "SK-MEL-5 melanoma", "> 25 µM"),
]

# ---- query compound ----
I have this compound here, "O=c1[nH]c2ccccc2c2ccccc12" , and I need its recorded TGI.
> 100 µM

====

- Test system: SK-MEL-2 melanoma
- protocol.details: NCI tumour cell line growth inhibition, 48 h
endpoint.name: TGI

I have this compound here, "O=c1cc(N=Nc2ccc(Br)cc2)[nH]c(=S)[nH]1" , and I need its recorded TGI.
33.3 µM

I have this compound here, "CC(=O)Nc1ccc2c(c1)C(c1ccccc1Cl)=Nc1c(n[nH]c1C)N2" , and I need its recorded TGI.
> 25 µM

====

- System: COLO 205 colon
- protocol.details: NCI tumour cell line growth inhibition, 48 h
endpoint.name: TGI

I have this compound here, "CCOC(=O)c1c[nH]c2c(Sc3ccccc3)nccc2c1=O" , and I need its recorded TGI.
> 100 µM

I have this compound here, "CN(C)CCCc1cccc2[nH]c3c(c12)CN(C)CC3" , and I need its recorded TGI.
> 100 µM

I have this compound here, "COc1ccccc1NC(=S)N/N=C/c1c(C)n(C)n(-c2ccccc2)c1=O" , and I need its recorded TGI.
> 100 µM
